- targetOrTestSystem: Neu5Ac(a2-6)Gal(b1-4)GlcNAc(b1-3)Gal(b1-4)GlcNAc(b1-3)Gal(b1-4)GlcNAc(b1-2)Man(a1-3)[Neu5Ac(a2-6)Gal(b1-4)GlcNAc(b1-3)Gal(b1-4)GlcNAc(b1-3)Gal(b1-4)GlcNAc(b1-2)Man(a1-6)]GalNAc
- procedureText: glycan array binding signal (z-score within array); higher = stronger binding
- reportedConditions: glycan notation: IUPAC condensed, linker removed
About 410 targets per protein were measured; listed, in parts, are those with the strongest signals and a random draw of the rest.
reportedMetric: glycan array binding signal (z-score)
Give bare numbers.

Worked cases, answers included:
Item LBL-152 (Laetiporus bicolor), B0D650 (protein) MSNEYNPPLGIAFRLCGLASDRVLFSRVSPSPEVFHHPKSEVYPDQWFVAIPGSGQNAGCYAIKSKNTGKVLFSRMSPDPRVGHIDGDGKYPDNWFKFEAGSGKYAGYFRLRAVASDTVLVSRTSTGTDTQVINYPATSAKYDDQYFTILFDHHHHHH has what recorded glycan array binding signal (z-score)?
-0.134

Try this binder next: SP15308F-bth-333-19-333 (Bacteroides thetaiotaomicron) (protein) SCNNEWESEQYVQMVSFKAPVNAQGVTPIYIRYKPEGKVTYQLPLIVSGSTMNSKDLNVHVGLDLDTLDVLNVEHFGSRKELFFKPLENKYYEFPETVQIPAGECTSLLPIDFALKDLDQVDKWVLPLAIQSNDPSHNYQANPRKFYRRAMLRISPFNDYSGQYSATAYKVYFKGNEKEAIVPEYHTSYVIDDKTIFFYAGLIDIDRLDRKYYKIKFEFTEEKIDLQTRKLKISSDNEDINLVVKGQPSYTVEEEMDATRPYLKHIYVTINNLEYEFTDYTSVPGYPLEYVVKGSLTMERKINTQIPDEDQAIEW
2.6

Kindly review the next binder as well.
Item Agalectin (Anopheles gambiae) (protein) MSNRPFTAKFPRYPENGDEVFIRGKLKDDAKSFSVNFCLPRPAQVAEHQTPPYIALHFKTIYDERDDTSRVVLNWKNLQWQQEEVLDNYWHVDRSQTFRVVFRLHEDCIKVFVNSVDHPPDYQFPVQLPLDQIESIELWDDVEHVEEISFRYDNGNSY has what recorded glycan array binding signal (z-score)?
2.96
